Overview of recorded ED50 for various compounds
- Test system: Rattus norvegicus
- run_description: In vivo intravenous dose required to produce a half maximal pressor response in the pithed rat.
- Type: functional
property_measured: ED50 (µmol/kg)

compound | reading
CC(C#CC[N+](C)(C)C)OC(=O)Nc1cccc(Cl)c1 (racemic) | 0.09
CC(C#CC[N+](C)(C)C)N(C)C(=O)Nc1cccc(Cl)c1 (stereo unspecified) | 0.69
C[C@@H](C#CC[N+](C)(C)C)OC(=O)Nc1ccc(Cl)cc1 | 0.008
CC(C#CC[N+](C)(C)C)OC(=O)Nc1ccc(Cl)cc1 (racemic) | 0.029
CN(CC#CC[N+](C)(C)C)C(=O)Cc1cccc(Cl)c1 | 0.92
CC(C#CC[N+](C)(C)C)N(C)C(=O)Cc1cccc(Cl)c1 (stereo unspecified) | 1.48
C[C@H](C#CC[N+](C)(C)C)OC(=O)Nc1ccc(Cl)cc1 | 0.039
C[C@@H](C#CC[N+](C)(C)C)OC(=O)Nc1cccc(Cl)c1 | 0.12
C[N+](C)(C)CC#CCOC(=O)Nc1cccc(Cl)c1 | 0.45
C[C@H](C#CC[N+](C)(C)C)OC(=O)Nc1cccc(Cl)c1 | 0.18
CN(CC#CC[N+](C)(C)C)C(=O)Nc1cccc(Cl)c1 | 0.55
